Values from patent US20100022526A1

Parameter melting point: see the listing below.
ENDPOINT_NAME: melting point

[
  {
    "COMPOUND": "Cc1cccc(-c2c(Cl)nnc(Cl)c2-c2c(F)cc(F)cc2F)c1 [I.d. 198]",
    "ENDPOINT_NAME": "melting point",
    "DATA_VALUE": "121 to 123 °C"
  },
  {
    "COMPOUND": "COc1nnc(Cl)c(-c2c(F)cc(F)cc2F)c1-c1ccc(Br)cc1 [I.l. 199]",
    "ENDPOINT_NAME": "melting point",
    "DATA_VALUE": "113 to 119 °C"
  },
  {
    "COMPOUND": "Fc1cc(F)c(-c2c(F)nnc(F)c2-c2ccc(Br)cc2)c(F)c1 [I.l. 197]",
    "ENDPOINT_NAME": "melting point",
    "DATA_VALUE": "132 to 133 °C"
  },
  {
    "COMPOUND": "Fc1cc(F)c(-c2c(Cl)nnc(Cl)c2-c2cccc(Cl)c2)c(F)c1 [I.b. 198]",
    "ENDPOINT_NAME": "melting point",
    "DATA_VALUE": "138 to 140 °C"
  },
  {
    "COMPOUND": "O=c1[nH][nH]c(=O)c(-c2c(F)cc(F)cc2F)c1-c1ccc(Br)cc1 [I.l.196]",
    "ENDPOINT_NAME": "melting point",
    "DATA_VALUE": "272 to 274 °C"
  },
  {
    "COMPOUND": "COc1ccc(-c2c(O)nnc(O)c2-c2c(F)cc(F)cc2F)cc1 [I.p.196]",
    "ENDPOINT_NAME": "melting point",
    "DATA_VALUE": "287 to 294 °C"
  },
  {
    "COMPOUND": "Fc1cc(F)c(-c2c(Cl)nnc(Cl)c2-c2cccc(C(F)(F)F)c2)c(F)c1 [I.e. 198]",
    "ENDPOINT_NAME": "melting point",
    "DATA_VALUE": "117 to 119 °C"
  },
  {
    "COMPOUND": "Oc1nnc(O)c(-c2c(F)cc(F)cc2F)c1-c1cccc(C(F)(F)F)c1 [I.e.196]",
    "ENDPOINT_NAME": "melting point",
    "DATA_VALUE": "259 to 260 °C"
  },
  {
    "COMPOUND": "Fc1ccc(-c2c(F)nnc(F)c2-c2c(F)cc(F)cc2F)cc1 [I.j. 197]",
    "ENDPOINT_NAME": "melting point",
    "DATA_VALUE": "74 to 76 °C"
  },
  {
    "COMPOUND": "CCc1ccc(-c2c(O)nnc(O)c2-c2c(F)cc(F)cc2F)cc1 [I.o.196]",
    "ENDPOINT_NAME": "melting point",
    "DATA_VALUE": "278 to 289 °C"
  },
  {
    "COMPOUND": "Fc1ccc(-c2c(Cl)nnc(Cl)c2-c2c(F)cc(F)cc2F)cc1 [I.j. 198]",
    "ENDPOINT_NAME": "melting point",
    "DATA_VALUE": "143 to 145 °C"
  },
  {
    "COMPOUND": "Fc1cc(F)c(-c2c(Cl)nnc(Cl)c2-c2cccc(Br)c2)c(F)c1 [I.c. 198]",
    "ENDPOINT_NAME": "melting point",
    "DATA_VALUE": "120 to 121 °C"
  },
  {
    "COMPOUND": "Fc1cc(F)c(-c2c(Cl)nnc(Cl)c2-c2ccc(Cl)c(Cl)c2)c(F)c1 [I.v. 198]",
    "ENDPOINT_NAME": "melting point",
    "DATA_VALUE": "139 to 140 °C"
  },
  {
    "COMPOUND": "COc1ccc(-c2c(Cl)nnc(Cl)c2-c2c(F)cc(F)cc2F)cc1 [I.p. 198]",
    "ENDPOINT_NAME": "melting point",
    "DATA_VALUE": "106 to 109 °C"
  },
  {
    "COMPOUND": "Fc1cc(F)c(-c2c(Cl)nnc(Cl)c2-c2ccc(Br)cc2)c(F)c1 [I.l. 198]",
    "ENDPOINT_NAME": "melting point",
    "DATA_VALUE": "134 to 137 °C"
  },
  {
    "COMPOUND": "Fc1cccc(Cl)c1-c1c(Cl)nnc(Cl)c1-c1ccc(Cl)cc1 [I.k.078]",
    "ENDPOINT_NAME": "melting point",
    "DATA_VALUE": "144 to 145 °C"
  },
  {
    "COMPOUND": "COc1nnc(Cl)c(-c2c(F)cc(F)cc2F)c1-c1ccc(C)cc1 [I.m. 199]",
    "ENDPOINT_NAME": "melting point",
    "DATA_VALUE": "126 to 128 °C"
  },
  {
    "COMPOUND": "Oc1nnc(O)c(-c2c(F)cccc2Cl)c1-c1ccc(Cl)cc1 [I.k.076]",
    "ENDPOINT_NAME": "melting point",
    "DATA_VALUE": "144 to 149 °C"
  },
  {
    "COMPOUND": "COc1nnc(Cl)c(-c2c(F)cc(F)cc2F)c1-c1ccc(F)cc1 [I.j. 199]",
    "ENDPOINT_NAME": "melting point",
    "DATA_VALUE": "146 to 151 °C"
  }
]
